# measurement_target: recombinant human CCR5 receptor (Homo sapiens)
# Sequence (P51681 whole entry): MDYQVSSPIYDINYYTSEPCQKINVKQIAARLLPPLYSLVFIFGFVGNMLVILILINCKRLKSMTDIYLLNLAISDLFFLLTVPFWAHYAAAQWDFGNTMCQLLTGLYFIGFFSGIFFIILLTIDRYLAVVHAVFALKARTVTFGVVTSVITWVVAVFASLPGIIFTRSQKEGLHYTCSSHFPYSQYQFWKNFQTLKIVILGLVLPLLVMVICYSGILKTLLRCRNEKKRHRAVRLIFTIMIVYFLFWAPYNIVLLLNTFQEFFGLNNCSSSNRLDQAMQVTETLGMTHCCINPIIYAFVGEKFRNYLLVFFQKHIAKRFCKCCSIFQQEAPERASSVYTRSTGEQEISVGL
# test: in vitro radioligand binding assay: inhibition of the binding of iodinated MIP-1α
# condition_notes: membranes from Chinese hamster ovary cells expressing CCR5; 0.1 nM iodinated MIP-1α; average if tested more than once
Attribute: IC50
Write the answer as a number in nM, unit excluded.

- compound: "CCN(C(=O)Cc1ccc(S(C)(=O)=O)cc1)C1CCN(CCC(c2ccccc2)N2CCN(C)CC2)CC1 (centres unmarked) [6 of Table I]"
  unit_tag: "nM"
  IC50: 363

For the next question, use this compound.
Enquiry: # query: IC50 of entry CCN(C(=O)Cc1ccc(S(C)(=O)=O)cc1)C1CCN(CCC(c2ccccc2)N2CCN(S(=O)(=O)CC(F)(F)F)CC2)CC1 (centres unmarked) [15 of Table II]
Return: 5.62
